Give IC50, X4-HIV-1 inhibition assay for every item shown.
Target: CXC chemokine receptor type 4 (CXCR4) (human, UniProt P61073 1-352)
Sequence (P61073 whole entry): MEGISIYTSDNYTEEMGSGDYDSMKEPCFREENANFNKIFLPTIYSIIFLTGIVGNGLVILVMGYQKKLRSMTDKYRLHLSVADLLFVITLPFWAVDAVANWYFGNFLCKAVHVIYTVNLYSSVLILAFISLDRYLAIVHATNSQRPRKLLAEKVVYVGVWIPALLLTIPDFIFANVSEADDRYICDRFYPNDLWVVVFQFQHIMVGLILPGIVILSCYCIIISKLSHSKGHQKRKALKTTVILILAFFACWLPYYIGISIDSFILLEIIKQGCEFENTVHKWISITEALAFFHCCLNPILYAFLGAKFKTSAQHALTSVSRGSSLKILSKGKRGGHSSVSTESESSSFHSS
Assay: cell-based or functional assay
Where no end group is shown, it is not given here. The star is where a group is joined. Palmitoyl = CCCCCCCCCCCCCCCC(=O)*

Record IMRWSRKMPCVS [JM#17] , field IC50, X4-HIV-1 inhibition assay: < 5 nM

Record ILRWSRKMPCVS [JM#13] , field IC50, X4-HIV-1 inhibition assay: < 5 nM

Record ILRWSRKMPCMS [JM#20] , field IC50, X4-HIV-1 inhibition assay: < 5 nM

Record IVRWSKKVPCVS [WSC02] , field IC50, X4-HIV-1 inhibition assay: 310 nM

Record ILRWSRK-NH2 (not fully specified (residue 7)) [JM#255] , field IC50, X4-HIV-1 inhibition assay: < 5 nM

Record ILRWSRKLPCVS (not fully specified (residue 7)) [JM#143] , field IC50, X4-HIV-1 inhibition assay: 5 nM

Record ILRWSRK(Palmitoyl)LPCVS [JM#144] , field IC50, X4-HIV-1 inhibition assay: < 5 nM

Record ILRWSRKFPCVS [JM#22] , field IC50, X4-HIV-1 inhibition assay: < 5 nM

Record ILRWSRKMPCLS [JM#18] , field IC50, X4-HIV-1 inhibition assay: < 5 nM

Entry source: patent US20230131339A1
